molecules and their reported IC50
- System: Vesicular stomatitis virus
- ASSAY: Inhibitory concentration required to reduce virus -induced cytopathicity (VSV)
- Format: functional, organism-based
REPORTED_METRIC: IC50 (µg/mL)

[[record]]
molecule_smiles = "C[C@H](O)C1=C[C@@H](n2cnc3c(N)ncnc32)[C@H](O)[C@@H]1O"
obs_value = 0.25

[[record]]
molecule_smiles = "Nc1ncnc2c1ncn2[C@@H]1C=C[C@@H](O)[C@H]1O"
obs_value = 1

[[record]]
molecule_smiles = "Nc1nc(F)nc2c1ncn2[C@@H]1C=C(CO)[C@@H](O)[C@H]1O"
obs_value = 0.25

